- Test system: H4 (Low Grade Glioma)
- Experiment: Bliss excess, mean over the matrix (fraction); higher = more synergy;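 further: after 72 h of two-drug dosing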
Exercise: state measured Bliss excess for each of the compounds provided.
Number, no unit, nothing else.

Recorded Bliss excess for CCN(CCO)CCCOc1ccc2c(Nc3cc(CC(=O)Nc4cccc(F)c4)[nH]n3)ncnc2c1 [AZD2811] + O=C(c1cc(Cc2n[nH]c(=O)c3ccccc23)ccc1F)N1CCN(C(=O)C2CC2)CC1 [Olaparib] (first compound max 1 µM, 7x7, partner max 10 µM) on H4 (Low Grade Glioma) was -0.0046

Recorded Bliss excess for Cc1cc2ncnn2cc1Nc1ncc2c(n1)n(C1CCOCC1)c(=O)n2C [AZD7648] + O=C(c1cc(Cc2n[nH]c(=O)c3ccccc23)ccc1F)N1CCN(C(=O)C2CC2)CC1 [Olaparib] (first compound max 10 µM, 7x7, partner max 10 µM) on H4 (Low Grade Glioma) was 0.0404

Recorded Bliss excess for C[C@@H](c1ccc2nccn2c1)n1nnc2ncc(-c3cnn(C)c3)nc21 [Savolitinib] + Cc1c2c(nn1C)CSCc1cc(n(C)n1)CSc1cc(c3ccccc3c1)OCCCc1c(C(=O)O)n(C)c3c-2c(Cl)ccc13 [AZD5991] (first compound max 1 µM, 7x7, partner max 1 µM) on H4 (Low Grade Glioma) was 0.0076

Recorded Bliss excess for Cn1cnc2c(F)c(Nc3ccc(Br)cc3Cl)c(C(=O)NOCCO)cc21 [Selumetinib] + CCN(CCO)CCCOc1ccc2c(Nc3cc(CC(=O)Nc4cccc(F)c4)[nH]n3)ncnc2c1 [AZD2811] (first compound max 10 µM, 7x7, partner max 1 µM) on H4 (Low Grade Glioma) was -0.0091

Origin of measurements: the supplement of paper PMC11061612
